Form field: Kd (one value per entry).
tgt: T1, recombinant soluble human GARP-TGFβ1 complex (human, UniProt Q14392 20-628; P01137 30-390)
T1 construct: co-expressed in HEK293E, purified by the Strep-Tag; TGFβ consists of LAP and mature TGFβ; also called shGARP-TGFβ; rhGARP-TGFβ
method_notes: SPR (Biacore), hGARP-TGFβ1 immobilised
Could you give me the number in nM? Just the number is fine.

# count of solved cases: 2
LHG-10.6 (antibody, human IgG1, V domains shown, VK-shuffled variant of LHG-10, human IgG1) VH: EVQLVQPGAELRNSGASVKVSCKASGYRFTSYYIDWVRQAPGQGLEWMGRIDPEDGGTKYAQKFQGRVTFTADTSTSTAYVELSSLRSEDTAVYYCARNEWETVVVGDLMYEYEYWGQGTQVTVSS VL: DIQMTQSPSSLSASLGDRVTITCQASQSISSYLAWYQQKPGQAPNILIYGASRLKTGVPSRFSGSGSGTSFTLTISGLEAEDAGTYYCQQYASVPVTFGQGTKVELK :: 0.0159
LHG-10.3-D (antibody, human IgG1, V domains shown) VH: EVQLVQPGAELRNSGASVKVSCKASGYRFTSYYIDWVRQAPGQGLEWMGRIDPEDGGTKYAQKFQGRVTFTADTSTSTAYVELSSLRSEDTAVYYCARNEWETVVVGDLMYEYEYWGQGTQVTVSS VL: DIQMTQSPSSLSASLGDRVTITCQASQSIVSYLAWYQQKPGQAPKLLIYGASRLQTGVPSRFSGSGSGTSFTLTISGLEAEDAGTYYCQQYASAPVTFGQGTGVELK :: 0.0224

INPUT: For the binder shown here, LHG-10.5-D (antibody, human IgG1, V domains shown) VH: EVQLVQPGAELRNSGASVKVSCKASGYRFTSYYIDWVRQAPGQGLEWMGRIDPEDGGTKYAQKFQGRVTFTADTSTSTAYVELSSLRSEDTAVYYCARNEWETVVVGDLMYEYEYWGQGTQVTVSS VL: DIQMTQSPSSLSPSLGDRVTITCQASQTISSFLAWYHQKPGQPPKLLIYRASIPQTGVPSRFSGSGSGTSFTLTIGGLEAEDAGTYYCQQYVSAPPTFGQGTKVELK , give the reported Kd.
OUTPUT: 0.028
